The reported numbers originate from patent EP4722206A1.

Molecular target: UniProt P10275
Sequence (P10275 1-920): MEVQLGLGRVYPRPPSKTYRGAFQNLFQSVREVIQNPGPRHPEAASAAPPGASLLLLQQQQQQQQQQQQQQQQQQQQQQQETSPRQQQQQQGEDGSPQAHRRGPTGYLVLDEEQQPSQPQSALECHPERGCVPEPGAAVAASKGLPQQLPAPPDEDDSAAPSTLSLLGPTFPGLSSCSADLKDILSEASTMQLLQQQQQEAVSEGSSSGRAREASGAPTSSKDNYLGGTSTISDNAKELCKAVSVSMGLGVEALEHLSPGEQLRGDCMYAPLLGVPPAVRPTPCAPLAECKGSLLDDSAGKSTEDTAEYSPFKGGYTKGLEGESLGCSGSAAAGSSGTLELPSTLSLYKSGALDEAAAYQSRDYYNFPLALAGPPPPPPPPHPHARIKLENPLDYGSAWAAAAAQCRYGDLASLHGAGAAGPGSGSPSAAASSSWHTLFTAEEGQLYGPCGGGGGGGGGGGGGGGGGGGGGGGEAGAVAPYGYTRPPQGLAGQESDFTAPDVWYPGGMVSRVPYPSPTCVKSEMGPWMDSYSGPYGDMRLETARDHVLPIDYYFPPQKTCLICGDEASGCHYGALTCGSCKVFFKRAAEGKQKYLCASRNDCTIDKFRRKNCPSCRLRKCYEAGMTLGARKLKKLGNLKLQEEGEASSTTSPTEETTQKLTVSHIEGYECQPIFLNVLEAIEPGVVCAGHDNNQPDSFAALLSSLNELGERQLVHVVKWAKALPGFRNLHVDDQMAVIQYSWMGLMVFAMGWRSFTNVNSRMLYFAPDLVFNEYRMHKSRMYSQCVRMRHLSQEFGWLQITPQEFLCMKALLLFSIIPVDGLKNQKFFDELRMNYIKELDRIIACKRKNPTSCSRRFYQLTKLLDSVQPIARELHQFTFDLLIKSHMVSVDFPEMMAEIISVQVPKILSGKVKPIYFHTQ
Assay: Androgen receptor (AR) reporter gene assay (ARE Luc)
Details: AR+ARE/Luc HEK293T cells, with 11-KDHT, 24h incubation, Bright-Lite luminescence
measure: log10 of IC50 (log10 of the value in nM)

>>> data_value("N#Cc1cc2c(c(Cl)c1OCCCl)CCCC2c1cnc2c(cnn2CCOCCOc2ccc3c(c2)C(=O)N(C2CCC(=O)NC2=O)C3=O)c1 (centres unmarked)")
2.88
>>> data_value("N#Cc1cc2c(c(Cl)c1OCCCl)CCCC2c1ccc(N2CC(OCCOc3ccc4c(c3)C(=O)N(C3CCC(=O)NC3=O)C4=O)C2)nc1 (centres unmarked)")
0.88
>>> data_value("CCOc1c(C#N)cc2c(c1Cl)CCCC2Nc1ccc(OCCCNc2ccc3c(c2)C(=O)N(C2CCC(=O)NC2=O)C3=O)nc1 (centres unmarked)")
2.58
>>> data_value("N#Cc1cc2c(c(Cl)c1OCCCl)CCCC2Nc1ccc(OCCCCNc2ccc3c(c2)C(=O)N(C2CCC(=O)NC2=O)C3=O)nc1 (centres unmarked)")
2.91
>>> data_value("N#Cc1cc2c(c(Cl)c1OCCCl)CCCC2c1cnc(N2CCC(OCCCOc3ccc4c(c3)C(=O)N(C3CCC(=O)NC3=O)C4=O)CC2)nc1 (centres unmarked)")
2.47
>>> data_value("N#Cc1cc2c(c(Cl)c1OCCCl)CCCC2c1ccc(OCCCNc2ccc3c(c2)C(=O)N(C2CCC(=O)NC2=O)C3=O)nc1 (centres unmarked)")
2.76
>>> data_value("N#Cc1cc2c(c(Cl)c1OCCCl)CCCC2c1cnc(N2CCC(OC3CN(c4ccc5c(c4)C(=O)N(C4CCC(=O)NC4=O)C5=O)C3)CC2)nc1 (centres unmarked)")
2.68
>>> data_value("N#Cc1cc2c(c(Cl)c1OCCCl)CCCC2c1cnc(N2CCC(OCCNc3ccc4c(c3)C(=O)N(C3CCC(=O)NC3=O)C4=O)C2)nc1 (centres unmarked)")
2.63
>>> data_value("N#Cc1cc2c(c(Cl)c1OCCCl)CCC[C@H]2c1cnc(NCCOCCOc2ccc3c(c2)C(=O)N(C2CCC(=O)NC2=O)C3=O)nc1 (some centres unmarked) [HANT-315-P1]")
0.30
>>> data_value("N#Cc1cc2c(c(Cl)c1OCCCl)CCCC2Nc1ccc(OCNc2ccc3c(c2)C(=O)N(C2CCC(=O)NC2=O)C3=O)nc1 (centres unmarked)")
2.09
>>> data_value("N#Cc1cc2c(c(Cl)c1OCCCl)CCCC2Nc1ccc(OCOCNc2ccc3c(c2)C(=O)N(C2CCC(=O)NC2=O)C3=O)nc1 (centres unmarked)")
3.26
>>> data_value("N#Cc1cc2c(c(Cl)c1OCCCl)CCCC2c1cnc(NCCCNc2ccc3c(c2)C(=O)N(C2CCC(=O)NC2=O)C3=O)nc1 (centres unmarked)")
2.69
>>> data_value("N#Cc1cc2c(c(Cl)c1OCCCl)CCCC2Nc1ccc(OCOCNc2cccc3c2C(=O)N(C2CCC(=O)NC2=O)C3=O)nc1 (centres unmarked)")
2.96
>>> data_value("CCOc1c(C#N)cc2c(c1Cl)CCCC2c1cnc(NCCOC2CN(c3ccc4c(c3)C(=O)N(C3CCC(=O)NC3=O)C4=O)C2)nc1 (centres unmarked)")
2.87
>>> data_value("N#Cc1cc2c(c(Cl)c1OCCCl)CCCC2c1ccc(N2CCC(OCCCOc3ccc4c(c3)C(=O)N(C3CCC(=O)NC3=O)C4=O)CC2)nc1 (centres unmarked)")
2.50
>>> data_value("CCOc1c(C#N)cc2c(c1Cl)CCCC2c1cnc(NCCOCCOc2ccc3c(c2)C(=O)N(C2CCC(=O)NC2=O)C3=O)nc1 (centres unmarked)")
1.32
>>> data_value("N#Cc1cc2c(c(Cl)c1OCCCl)CCCC2c1ccc(OCCCCOc2ccc3c(c2)C(=O)N(C2CCC(=O)NC2=O)C3=O)nc1 (centres unmarked)")
2.82
>>> data_value("N#Cc1cc(C2CCCc3c2cc(C#N)c(OCCCl)c3Cl)cnc1N1CC(OCCOc2ccc3c(c2)C(=O)N(C2CCC(=O)NC2=O)C3=O)C1 (centres unmarked)")
1.51
>>> data_value("N#Cc1cc2c(c(Cl)c1OCCCl)CCCC2c1cnc(NCCOCCOc2ccc3c(c2)C(=O)N(C2CCC(=O)NC2=O)C3=O)nc1 (centres unmarked)")
1.48
>>> data_value("N#Cc1cc2c(c(Cl)c1OCCCl)CCC[C@@H]2c1cnc(NCCOCCOc2ccc3c(c2)C(=O)N(C2CCC(=O)NC2=O)C3=O)nc1 (some centres unmarked) [HANT-315-P2]")
3.59
>>> data_value("N#Cc1cc2c(c(Cl)c1OCCCl)CCCC2c1ccc(NCCOCCOc2ccc3c(c2)C(=O)N(C2CCC(=O)NC2=O)C3=O)nc1 (centres unmarked)")
1.46
>>> data_value("N#Cc1cc2c(c(Cl)c1OCCCl)CCCC2c1ccc(OC2CCC(OCCOc3ccc4c(c3)C(=O)N(C3CCC(=O)NC3=O)C4=O)CC2)nc1 (centres unmarked)")
2.32
>>> data_value("N#Cc1cc2c(c(Cl)c1OCCCl)CCCC2c1cnc(N2CC(OCCOc3ccc4c(c3)C(=O)N(C3CCC(=O)NC3=O)C4=O)C2)nc1 (centres unmarked)")
1.36
>>> data_value("N#Cc1cc2c(c(Cl)c1OCCCl)CCCC2c1cnc(N2CCC(OCCOc3ccc4c(c3)C(=O)N(C3CCC(=O)NC3=O)C4=O)CC2)nc1 (centres unmarked)")
1.43
>>> data_value("N#Cc1cc2c(c(Cl)c1OCCCl)CCCC2c1ccc(N2CCC(OCCOc3ccc4c(c3)C(=O)N(C3CCC(=O)NC3=O)C4=O)CC2)nc1 (centres unmarked)")
1.86
>>> data_value("N#Cc1cc2c(c(Cl)c1OCCCl)CCCC2c1ccc(OC2CCC(Oc3ccc4c(c3)C(=O)N(C3CCC(=O)NC3=O)C4=O)CC2)nc1 (centres unmarked)")
2.76
